Tested on: OM-1 (colon)
test-name: Radiometric growth inhibition of tumor cells, OM-1
Format: cell-based, human
measurement-conditions: Homo sapiens; OM-1; concentration required to kill 50%; read-out: IC 50
Give IC50 for every item shown.

molecule="O=c1[nH]cnc2c1ncn2[C@@H]1C[C@@H](O)[C@H](CO)O1 [2'-β-L-deoxy ribofuranosyl hypoxanthine, 2'-Deoxy-β-L-inosine]" result="> 10 µg/mL"
molecule=O=C(OC[C@@H]1O[C@H](n2ccc(=S)[nH]c2=O)C[C@H]1OC(=O)c1ccccc1)c1ccccc1 result="0.98 µg/mL"
molecule="Nc1nc(S)c2ncn([C@H]3O[C@@H](CO)[C@H](O)[C@@H]3O)c2n1 [β-L-ribofuranosyl-6-thioguanine, 9-β-L-Ribofuranosyl-6-thioguanine]" result="42.7 µg/mL"
molecule="O=c1[nH]cnc2c1ncn2[C@H]1O[C@@H](CO)[C@H](O)[C@@H]1O [β-:-ribofuranosyl hypoxanthine, 9-β-L-Ribofuranosylhypoxanthine]" result="82.7 µg/mL"

## Task Would you mind telling me what IC50 value was observed for O=c1[nH]c(=O)n([C@@H]2C[C@@H](O)[C@H](CO)O2)cc1F [2'-Deoxy-β-L-5-fluorouridine] ?
## Result 56.1 µg/mL
